# targetDesc: T1, human amylin receptor (amylin 3(a) receptor: human calcitonin receptor with RAMP-3) (human, UniProt P30988 25-474; O60896 24-148)
# T1 construct: whole, on cells; also called hAmylin-R; hAmylinR
# T1 sequence (looked up) 1: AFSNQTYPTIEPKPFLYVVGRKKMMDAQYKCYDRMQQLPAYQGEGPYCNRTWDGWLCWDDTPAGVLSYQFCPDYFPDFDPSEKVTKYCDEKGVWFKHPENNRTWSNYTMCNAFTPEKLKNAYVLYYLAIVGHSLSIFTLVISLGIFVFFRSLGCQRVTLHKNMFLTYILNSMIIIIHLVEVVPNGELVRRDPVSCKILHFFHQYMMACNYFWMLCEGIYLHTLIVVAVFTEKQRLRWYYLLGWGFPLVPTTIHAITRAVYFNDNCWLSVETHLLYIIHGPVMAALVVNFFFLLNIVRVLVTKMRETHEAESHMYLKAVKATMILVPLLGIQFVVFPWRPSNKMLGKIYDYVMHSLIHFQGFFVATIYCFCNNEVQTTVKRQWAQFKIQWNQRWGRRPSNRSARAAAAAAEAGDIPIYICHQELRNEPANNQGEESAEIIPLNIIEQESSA
# T1 sequence (looked up) 2: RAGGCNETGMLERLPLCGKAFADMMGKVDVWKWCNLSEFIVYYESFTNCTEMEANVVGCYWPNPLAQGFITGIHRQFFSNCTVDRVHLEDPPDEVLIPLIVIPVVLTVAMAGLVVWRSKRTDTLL
# assayOverview: SPA displacement of 125I-rat amylin, hAmylin 3(a) receptor membranes
Numbered stars: 1 amine (or outer) side, 2 acyl side, 3 side chain; on linkers, the order of the positions; unused ones are H or OH. Bridge positions count the residues as written; N and C are the ends. Side chains are listed from the residue outwards. Ends that are not written are not given here. * marks the point of attachment. C20 diacid = O=C(O)CCCCCCCCCCCCCCCCCCC(=O)*; γGlu = O=C(O)[C@H](CCC(=O)[*:2])N[*:1]; AEEA = NCCOCCOCC(=O)O
Items are presented alongside their recorded IC50.
// units = nM; emit number, no label

{"columns": ["binder", "measurementUnits", "IC50"],
 "data": [
  ["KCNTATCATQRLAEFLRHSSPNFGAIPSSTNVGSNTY (C20 diacid-gGlu on alpha amino group of N-terminal Lys 1; Cys2-Cys7 disulfide; C-terminal amide, also called compound 9) [N^α1-[(4S)-4-carboxy-4-(19-carboxynonadecanoylamino)butanoyl]-[Glu14,Arg17,Pro21,Pro27]-h-amylin]", "nM", 0.143],
  ["{C20 diacid-γGlu}-KCNTATCATQRLAEFLRHSSPNFGAIPSSTNVGSNTP-NH2 (disulfide 2-7, also called compound 8)", "nM", 0.072],
  ["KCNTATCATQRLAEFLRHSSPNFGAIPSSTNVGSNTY (C20 diacid-gGlu-2xOEG on alpha amino group of N-terminal Lys 1; Cys2-Cys7 disulfide; C-terminal amide, also called 19; compound 19)", "nM", 0.556],
  ["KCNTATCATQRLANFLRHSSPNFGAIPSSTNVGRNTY (C20 diacid-gGlu on alpha amino group of N-terminal Lys 1; Cys2-Cys7 disulfide; C-terminal amide, also called 39; compound 39) [N^α1-[(4S)-4-carboxy-4-(19-carboxynonadecanoylamino)butanoyl]-[Arg17,Pro21,Pro27,Arg34]-h-amylin]", "nM", 0.665],
  ["{C20 diacid-γGlu}-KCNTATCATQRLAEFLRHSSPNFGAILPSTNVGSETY-NH2 (disulfide 2-7, also called 33; compound 33)", "nM", 0.915]
]}

Req: Please give the documented IC50 of K([AEEA-γGlu-C20 diacid])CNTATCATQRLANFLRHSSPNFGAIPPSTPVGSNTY-NH2 (disulfide 2-7, also called 53; compound 53)
Resp: 0.052

Req: Please give the documented IC50 of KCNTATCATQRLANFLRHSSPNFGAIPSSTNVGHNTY (C20 diacid-gGlu on alpha amino group of N-terminal Lys 1; Cys2-Cys7 disulfide; C-terminal amide, also called 40; compound 40) [N^α1-[(4S)-4-carboxy-4-(19-carboxynonadecanoylamino)butanoyl]-[Arg17,Pro21,Pro27,His34]-h-amylin]
Resp: 0.549

Req: Please give the documented IC50 of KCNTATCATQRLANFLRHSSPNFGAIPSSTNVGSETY (C20 diacid-gGlu on alpha amino group of N-terminal Lys 1; Cys2-Cys7 disulfide; C-terminal amide, also called 23; compound 23) [N^α1-[(4S)-4-carboxy-4-(19-carboxynonadecanoylamino)butanoyl]-[Arg17,Pro21,Pro27,Glu35]-h-amylin]
Resp: 0.871

All values here come from patent US20140087995A1.
